# assayInfo: Toxicity in mouse po dosed through diet for 14 days
# Format: organism-based
# conditionDescription: in vivo
resultType: MTD at 336 h (mg/kg)
Give just the numeric value; mg/kg need not be written.

If you can, please state the reported MTD at 336 h value of CCN(CC)CCNc1ccc(C)c2sc3ccccc3c(=O)c12.Cl [LUCANTHONE HYDROCHLORIDE] . 140

If you can, please state the reported MTD at 336 h value of CN(C)CCCN1C(=O)NC(c2cc(Cl)c(Cl)cc2Cl)C1=O (configuration not stated) . 78
